B1: FAM46C (parent)
chain: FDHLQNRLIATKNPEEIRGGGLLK

- Variants of: B1
- EXPERIMENT: protein stability index of a GFP-peptide fusion (GPS, HEK-293T) (PSI 1-6); higher = more stable;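 also: lentivirally expressed fusions sorted by FACS into six bins by GFP to DsRed ratio, PSI derived from sequencing read proportions per bin multiplied by bin number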
- RECORDED CONDITIONS: c terminus: a fixed tail appended
Here the recorded protein stability index is given for each entry.
Lab note: write the figure by itself, no unit.

protein stability index measured on `E16K` = 4.02

protein stability index measured on `G19H` = 3.99

protein stability index measured on `E16I` = 3.9

protein stability index measured on `K24H` = 3.07

protein stability index measured on `L8C` = 4.03

protein stability index measured on `L8K` = 4.16

protein stability index measured on `N13I` = 3.47

Data provenance is the supplement of paper PMC10567573.
